Origin of measurements: ChEMBL document CHEMBL3112491

test system: BT-549; experiment: Growth inhibition of human BT549 cells after 48 hrs by sulforhodamine B assay; type: functional; conditions: BT-549, 48 h
Label rule met when GI50 is strictly below 2000 nM; otherwise label rule not met.

Q: Please check: GI50 for COc1ccc(-c2c(-c3cc4c(c(OC)c3OC)OCO4)noc2N)cc1 , strictly under 2000 nM or not?
Ans: rule met

Q: Next record, please: COc1ccc(-c2onc(N)c2-c2cc(OC)c3c(c2)OCO3)cc1
Ans: rule not met

Q: Next record, please: COc1ccc(-c2c(-c3cc(OC)c4c(c3)OCO4)noc2N)cc1
Ans: rule not met

Q: Next record, please: COc1ccc(-c2c(-c3cc(OC)c4c(c3)OCCO4)noc2N)cc1
Ans: rule met

Q: Next record, please: COc1ccc(-c2noc(N)c2-c2cc(OC)c3c(c2)OCO3)cc1
Ans: rule not met

Q: Next record, please: COc1ccc(-c2c(-c3cc(OC)c(OC)c(OC)c3)noc2N)cc1
Ans: rule met
